Sourced from paper PMC8380212

# testedOn: FAP‐transfected HT‐1080‐FAP cells (Homo sapiens)
# Construct: expressed in transfected cells; host or cells: HT-1080 cells transfected with FAP (HT-1080-FAP)
# Sequence (Q12884 1-760): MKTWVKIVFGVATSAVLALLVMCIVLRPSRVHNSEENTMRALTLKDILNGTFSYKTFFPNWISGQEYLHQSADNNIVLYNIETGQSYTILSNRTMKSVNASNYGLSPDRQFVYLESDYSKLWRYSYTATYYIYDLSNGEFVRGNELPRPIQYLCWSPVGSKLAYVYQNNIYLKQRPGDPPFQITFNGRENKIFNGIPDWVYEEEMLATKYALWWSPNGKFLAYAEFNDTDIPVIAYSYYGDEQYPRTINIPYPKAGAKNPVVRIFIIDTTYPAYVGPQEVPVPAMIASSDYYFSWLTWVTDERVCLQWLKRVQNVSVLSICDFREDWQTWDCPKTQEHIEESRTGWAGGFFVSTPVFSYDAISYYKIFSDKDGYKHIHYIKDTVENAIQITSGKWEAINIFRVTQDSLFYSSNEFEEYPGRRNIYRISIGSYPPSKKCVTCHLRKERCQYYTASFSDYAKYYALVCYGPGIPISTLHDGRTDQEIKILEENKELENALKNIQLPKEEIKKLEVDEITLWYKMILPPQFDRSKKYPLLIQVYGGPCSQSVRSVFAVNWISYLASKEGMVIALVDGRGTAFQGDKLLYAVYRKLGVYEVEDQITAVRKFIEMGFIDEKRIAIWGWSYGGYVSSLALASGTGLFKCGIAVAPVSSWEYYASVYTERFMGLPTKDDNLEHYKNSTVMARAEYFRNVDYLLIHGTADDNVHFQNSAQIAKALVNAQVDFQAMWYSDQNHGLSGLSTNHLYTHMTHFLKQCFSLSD
# testDescription: In vitro binding/uptake on FAP-transfected HT-1080-FAP cells
# Type: cell-based
# details: HT1080-FAP cells, 120 min incubation
testReadout: uptake 120 min (%AD/10^6 cells)

These solved cases illustrate the format of a correct answer.
{"columns": ["smilesInput", "uptake 120 min (%AD/10^6 cells)"],
 "data": [
  ["N#C[C@@H]1CC(F)(F)CN1C(=O)CNC(=O)c1ccnc2ccc(OCCCN3CCN(C(=O)[C@H](CC(C(=O)O)C(=O)O)NC(=O)CN4CCN(CC(=O)O)CCN(CC(=O)O)CC4)CC3)cc12", 82.35],
  ["N#C[C@@H]1CC(F)(F)CN1C(=O)CNC(=O)c1ccnc2ccc(OCCCN3CCN(C(=O)CN4CCN(CC(=O)O)CCN(CC(=O)O)CC4)CC3)cc12", 58.0]
]}

[I] N#C[C@@H]1CCCN1C(=O)CNC(=O)c1ccnc2ccc(OCCCN3CCN(C(=O)CN4CCN(CC(=O)O)CCN(CC(=O)O)CC4)CC3)cc12
[II] CN(CCCN1CCN(C(=O)CN2CCN(CC(=O)O)CCN(CC(=O)O)CC2)CC1)c1ccc2nccc(C(=O)NCC(=O)N3CC(F)(F)C[C@H]3C#N)c2c1
When the recorded uptake 120 min values are compared, which is smaller: that of I or that of II ? Return value: the label identifying the chosen record.
I
